- system: human TMEM16A (TMEM16Aabc variant) (Homo sapiens, UniProt Q5XXA6, DEL476-501, form not given)
- Sequence (Q5XXA6 with tags, fused parts or gaps DEL476-501): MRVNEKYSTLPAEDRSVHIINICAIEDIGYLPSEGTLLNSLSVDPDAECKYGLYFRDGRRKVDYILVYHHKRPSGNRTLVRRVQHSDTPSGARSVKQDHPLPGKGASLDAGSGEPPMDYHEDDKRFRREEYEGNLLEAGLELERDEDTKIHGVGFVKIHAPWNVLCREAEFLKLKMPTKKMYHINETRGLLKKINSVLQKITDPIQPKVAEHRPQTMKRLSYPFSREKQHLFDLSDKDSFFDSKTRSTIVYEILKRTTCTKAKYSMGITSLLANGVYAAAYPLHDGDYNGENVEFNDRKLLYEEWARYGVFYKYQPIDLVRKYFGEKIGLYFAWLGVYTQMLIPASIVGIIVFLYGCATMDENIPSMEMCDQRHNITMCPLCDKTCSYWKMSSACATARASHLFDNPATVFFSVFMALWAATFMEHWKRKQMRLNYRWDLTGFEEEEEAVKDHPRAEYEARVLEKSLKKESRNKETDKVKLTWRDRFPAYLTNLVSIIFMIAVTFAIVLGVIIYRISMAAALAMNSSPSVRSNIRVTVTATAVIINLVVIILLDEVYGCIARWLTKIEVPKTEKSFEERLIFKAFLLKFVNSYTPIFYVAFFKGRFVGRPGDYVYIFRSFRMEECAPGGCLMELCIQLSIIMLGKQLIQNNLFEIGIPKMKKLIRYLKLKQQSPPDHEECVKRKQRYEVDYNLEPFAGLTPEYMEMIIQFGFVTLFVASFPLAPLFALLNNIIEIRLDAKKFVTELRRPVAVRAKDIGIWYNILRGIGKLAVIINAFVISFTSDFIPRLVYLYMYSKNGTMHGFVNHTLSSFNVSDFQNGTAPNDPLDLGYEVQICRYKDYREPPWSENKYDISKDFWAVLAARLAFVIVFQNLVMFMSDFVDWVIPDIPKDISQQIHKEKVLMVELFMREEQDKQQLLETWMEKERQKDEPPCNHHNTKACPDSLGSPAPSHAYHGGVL
- assay.explanation: Automated whole-cell patch clamp (Qpatch) TMEM16A potentiator assay in FRT cells stably expressing human TMEM16A
- Format: cell-based
- condition.summary: 3.33 μM solution of test compound; percentage increase of baseline TMEM16A current
measured.parameter: % Potentiation @ 3.33 μM Avg (%)
I only need the number, in %, no unit after it.

[[record]]
compound = "CC(C)(C)NC(=O)c1cc(NC(=O)Cc2cccc(CC#N)c2)ccn1 [Example 68]"
measured_parameter = "% Potentiation @ 3.33 μM Avg"
meas_value = 39

[[record]]
compound = "CC(C)(C)NC(=O)c1cc(NC(=O)Cc2ccc(Cl)c(O)c2)ccn1 [Example 3.14b]"
measured_parameter = "% Potentiation @ 3.33 μM Avg"
meas_value = 251

[[record]]
compound = "CC(C)(C)NC(=O)c1cccc(NC(=O)Cc2c(O)ccc(F)c2F)c1 [Example 2.11]"
measured_parameter = "% Potentiation @ 3.33 μM Avg"
meas_value = 126

[[record]]
compound = "CC(C)(C)NC(=O)c1cc(NC(=O)C2CCc3cccc(O)c32)ccn1 (stereo not drawn) [Example 3.10b]"
measured_parameter = "% Potentiation @ 3.33 μM Avg"
meas_value = 159

[[record]]
compound = "O=C(Cc1cc(Cl)ccc1O)Nc1ccnc(C(=O)NC2CCNCC2(F)F)c1 (stereo not drawn) [Example 32.8]"
measured_parameter = "% Potentiation @ 3.33 μM Avg"
meas_value = 79

[[record]]
compound = "CC(C)(C#N)NC(=O)c1cc(NC(=O)c2ccnn2CC(F)(F)F)ccn1 [Example 83.19]"
measured_parameter = "% Potentiation @ 3.33 μM Avg"
meas_value = 28


For the compound CC(O)c1cccc(CC(=O)Nc2ccnc(C(=O)NC(C)(C)C)c2)c1 (stereo not drawn) [Example 54] , give its reported % Potentiation @ 3.33 μM Avg. 62

For the compound O=C(Cc1ccc2ncccc2c1)Nc1ccnc(C(=O)NC2CCOCC2)c1 [Example 63] , give its reported % Potentiation @ 3.33 μM Avg. 37

For the compound CC(C)(C)NC(=O)c1cc(NC(=O)Cc2c(Cl)cccc2Cl)ccn1 [Example 5.17] , give its reported % Potentiation @ 3.33 μM Avg. 94

* * *

- system: human TMEM16A (TMEM16Aabc variant) (Homo sapiens, UniProt Q5XXA6, DEL476-501, form not given)
- assay.explanation: Automated whole-cell patch clamp (Qpatch) TMEM16A potentiator assay in FRT cells stably expressing human TMEM16A
- Assay type: cell-based
- condition.summary: calculated EC50, Qpatch TMEM16A current at +70 mV
measured.parameter: pEC50
Keep it numeric: pEC50 is minus log10 of the concentration in mol/L.

[[record]]
query_smiles = "O=C(Cc1cc(Cl)ccc1O)Nc1ccnc(C(=O)NC23CCC(F)(C2)C3)c1"
meas_value = 7.30

[[record]]
query_smiles = "COc1ccc(Cl)cc1CC(=O)Nc1cc(C(=O)NC(C)(C)C)ncn1"
meas_value = 6.14

[[record]]
query_smiles = "O=C(Cc1cc(F)ccc1O)Nc1ccnc(C(=O)NC23CCC(F)(C2)C3)c1"
meas_value = 7.40

[[record]]
query_smiles = "CCC(C)(C)NC(=O)c1cccc(NC(=O)Cc2cc(Cl)ccc2O)c1"
meas_value = 6.47


Field: next molecule
For the molecule CC(C)(C)NC(=O)c1cc(NC(=O)Cc2ccccc2C(F)(F)F)ccn1 , give its reported pEC50. 6.48

* * *

- system: human TMEM16A (TMEM16Aabc variant) (Homo sapiens, UniProt Q5XXA6, DEL476-501, form not given)
- assay.explanation: Automated whole-cell patch clamp (Qpatch) TMEM16A potentiator assay in FRT cells stably expressing human TMEM16A
- Type: cell-based
- condition.summary: 3.33 μM solution of test compound; percentage increase of baseline TMEM16A current
measured.parameter: % Potentiation @ 3.33 μM Avg (%)
I only need the number, in %, no unit after it.

These solved cases illustrate the format of a correct answer.
[[record]]
compound = "CC(C)(C)NC(=O)c1cc(NC(=O)Cc2ccc3ncccc3c2)ccn1"
meas_value = 190

[[record]]
compound = "CC1(NC(=O)c2cc(NC(=O)Cc3cc(Cl)ccc3O)ccn2)CCOCC1"
meas_value = 288

[[record]]
compound = "CC(C)(C)NC(=O)c1cc(NC(=O)Cc2ccc3ncoc3c2)ccn1"
meas_value = 87


Field: next compound
For the compound CC(C)(C)NC(=O)CC(C)(C)NC(=O)c1cc(NC(=O)Cc2cc(Cl)ccc2O)ccn1 , give its reported % Potentiation @ 3.33 μM Avg. 226

* * *

Each record here notes measured % Potentiation @ 3.33 μM Avg.
- system: human TMEM16A (TMEM16Aabc variant) (Homo sapiens, UniProt Q5XXA6, DEL476-501, form not given)
- assay.explanation: Automated whole-cell patch clamp (Qpatch) TMEM16A potentiator assay in FRT cells stably expressing human TMEM16A
- Assay type: cell-based
- condition.summary: 3.33 μM solution of test compound; percentage increase of baseline TMEM16A current
I only need the number, in %, no unit after it.

These solved cases illustrate the format of a correct answer.
[[record]]
compound = "C#CC1(NC(=O)c2cc(NC(=O)Cc3cc(Cl)ccc3O)ccn2)CCCCC1"
meas_value = 120

[[record]]
compound = "C#CC(C)(C)NC(=O)c1cc(NC(=O)Cc2c(C)nn(C(C)C)c2C)ccn1"
meas_value = 45

[[record]]
compound = "CC1(NC(=O)c2cccc(NC(=O)Cc3cc(Cl)ccc3O)c2)CCOCC1"
meas_value = 231

[[record]]
compound = "CC(C)(CCNC(=O)C(C)(C)C)NC(=O)c1cc(NC(=O)Cc2cc(Cl)ccc2O)ccn1"
meas_value = 151

[[record]]
compound = "C#CC(C)(C)NC(=O)c1cc(NC(=O)CC2CCCC2)ccn1"
meas_value = 157


For the compound CC1(NC(=O)c2cc(NC(=O)Cc3cc(C(C)(C)C)ccc3O)ccn2)CCC1 , give its reported % Potentiation @ 3.33 μM Avg. 546

For the compound O=C(Cc1cc(Cl)ccc1O)Nc1ccnc(C(=O)N[C@H]2CCCC[C@@H]2O)c1 [Example 31.3] , give its reported % Potentiation @ 3.33 μM Avg. 205

For the compound Cn1nc(-c2ccccc2)cc1C(=O)Nc1ccnc(C(=O)NC(C)(C)C#N)c1 , give its reported % Potentiation @ 3.33 μM Avg. 85

* * *

- system: human TMEM16A (TMEM16Aabc variant) (Homo sapiens, UniProt Q5XXA6, DEL476-501, form not given)
- assay.explanation: Automated whole-cell patch clamp (Qpatch) TMEM16A potentiator assay in FRT cells stably expressing human TMEM16A
- Type: cell-based
- condition.summary: 3.33 μM solution of test compound; percentage increase of baseline TMEM16A current
Would you mind sorting the entries by % Potentiation @ 3.33 μM Avg according to these classes? A (below 90%), B (90% to below 200%), C (200% or more)

[[record]]
molecule = "C#CC(C)(C)NC(=O)c1cc(NC(=O)CC(C)(C)C)ccn1"
assigned_label = "B"

[[record]]
molecule = "CC#CC(C)(C)NC(=O)c1cc(NC(=O)Cc2cc(Cl)ccc2O)ccn1"
assigned_label = "C"

[[record]]
molecule = "C#CC1(NC(=O)c2cc(NC(=O)Cc3ccccc3Cl)ccn2)CCOCC1"
assigned_label = "B"

[[record]]
molecule = "C#CC(C)(C)NC(=O)c1cc(NC(=O)Cc2cccc3cc[nH]c23)ccn1"
assigned_label = "A"

[[record]]
molecule = "Cc1[nH]c2c(F)cccc2c1CC(=O)Nc1cccc(C(=O)NC(C)(C)C)c1"
assigned_label = "A"


Band assignment needed for CC(C)(O)C(C)(C)NC(=O)c1cc(NC(=O)Cc2cc(Cl)ccc2O)ccn1 please. C

Band assignment needed for COc1cccc(F)c1CC(=O)Nc1cccc(C(=O)NC(C)(C)C)c1 please. A

* * *

- system: human TMEM16A (TMEM16Aabc variant) (Homo sapiens, UniProt Q5XXA6, DEL476-501, form not given)
- assay.explanation: Automated whole-cell patch clamp (Qpatch) TMEM16A potentiator assay in FRT cells stably expressing human TMEM16A
- Type: cell-based
- condition.summary: 3.33 μM solution of test compound; percentage increase of baseline TMEM16A current
Each record here notes measured % Potentiation @ 3.33 μM Avg.

These solved cases illustrate the format of a correct answer.
[[record]]
query_smiles = "CC(C)NC(=O)c1cc(NC(=O)Cc2cc(F)ccc2O)ccn1"
measured_parameter = "% Potentiation @ 3.33 μM Avg"
meas_value = "103%"

[[record]]
query_smiles = "COCc1cccc(CC(=O)Nc2ccnc(C(=O)NC(C)(C)C)c2)c1"
measured_parameter = "% Potentiation @ 3.33 μM Avg"
meas_value = "47%"

[[record]]
query_smiles = "CC(C)(C)NC(=O)c1cc(NC(=O)Cc2ccccc2F)ccn1"
measured_parameter = "% Potentiation @ 3.33 μM Avg"
meas_value = "100%"

[[record]]
query_smiles = "O=C(Cc1cc(Cl)ccc1O)Nc1ccnc(C(=O)N[C@@H]2CCC[C@@H]2O)c1"
measured_parameter = "% Potentiation @ 3.33 μM Avg"
meas_value = "147%"

[[record]]
query_smiles = "CC(C)(C)NC(=O)c1cc(NC(=O)Cc2cccnc2Cl)ccn1"
measured_parameter = "% Potentiation @ 3.33 μM Avg"
meas_value = "110%"


For the compound CC(C)(C)NC(=O)c1cc(NC(=O)Cc2c(O)cccc2Cl)ccn1 , give its reported % Potentiation @ 3.33 μM Avg. 91%

For the compound CC(C)(C)NC(=O)c1cccc(NC(=O)CCc2ccccc2O)c1 , give its reported % Potentiation @ 3.33 μM Avg. 51%

For the compound CC(C)C(C)(C)NC(=O)c1cc(NC(=O)Cc2cc(Cl)ccc2O)ccn1 , give its reported % Potentiation @ 3.33 μM Avg. 285%

For the compound CC(C)(C)NC(=O)c1cc(NC(=O)Cc2ccc(F)c(F)c2)ccn1 , give its reported % Potentiation @ 3.33 μM Avg. 108%
